Target: CASP3 (Casp3) (Homo sapiens)
Construct: commercial recombinant protein, captured on Ni-NTA chip (His tag implied)
Sequence (P42574 29-175): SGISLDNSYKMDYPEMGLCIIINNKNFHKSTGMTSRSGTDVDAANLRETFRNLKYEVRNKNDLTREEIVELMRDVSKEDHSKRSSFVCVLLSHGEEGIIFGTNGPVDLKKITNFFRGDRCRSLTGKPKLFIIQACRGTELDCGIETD
Sequence (P42574 176-277): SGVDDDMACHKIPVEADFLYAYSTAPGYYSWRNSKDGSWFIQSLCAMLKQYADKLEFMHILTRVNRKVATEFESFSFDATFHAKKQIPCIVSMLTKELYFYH
Test: SPR (OpenSPR, NTA chip, one-to-one model)
Text: SPR (OpenSPR, NTA chip, one-to-one model) on CASP3 (Casp3)
Reported Property: Kd (µM)
Answers are plain numbers, in µM.

Given the compound O=c1c(O)c(-c2ccc(O)cc2)oc2cc(O)cc(O)c12 , what is its reported Kd?
7.65
